Data origin, for the record: PubChem BioAssay (NCI)

Tested on: NCI-H226 lung
Assay: NCI-60 one-dose screen, 48 h (100 = growth as untreated, 0 = no growth, -100 = all killed)
Conditions: 10 µM unless noted
Experimental: Growth inhibition of the NCI-H226 human Non-Small Cell Lung tumor cell line is measured as a screen for anti-cancer activity. Cells are grown in 96 well plates and exposed to the test compound for 48 hours. Compounds are tested at a single concentration, which is 10^-5 M for most compounds. The reported endpoint is percent growth (GI% or GIPRCNT), where numbers from 0 - 100% represent growth inhibition, and numbers from -100% - 0 represent cell death. […]
This is part of a sample that, as a whole, favours compounds with a hit. Of some 83,000 tested, about 20% had one in any assay.
Listed here are molecules together with their documented growth.
MEASURED_QUANTITY: growth (%)

>>> reported("COc1cc2nc(Cl)nc(Nc3cccc(C4=Nc5c(N)nc(N)nc5NC(c5ccc6c(c5)OCO6)C4)c3)c2cc1OC (configuration not stated)")
85.3
>>> reported("CCCCCc1ccc(S(=O)(=O)Nc2cc(-c3csc(NC(=O)CN4CCN(C)CC4)n3)ccc2OC)cc1")
74.6
>>> reported("CN1CCN(Cc2ccc(NC(=O)c3cncc(C#Cc4cnc5ccc(OCC(C)(C)O)nn45)c3)cc2C(F)(F)F)CC1")
-64.1
>>> reported("O=C1Nc2ccccc2/C1=C/c1ccc(COCC2CO2)n1-c1ccc(O)cc1 (configuration not stated)")
109
>>> reported("Cc1cc(C(NC(=O)CCCCCNc2cccc3c2C(=O)N(C2CCC(=O)NC2=O)C3=O)c2ccc3c(c2)OC(F)(F)O3)c(O)c2ncccc12 (configuration not stated)")
72.8
>>> reported("O=C(NNc1nc2cc(F)ccc2n2c(CN3CC4CNCC4C3)ccc12)c1cnccn1 (configuration not stated)")
25
>>> reported("COc1cc2c(cc1OC)C(Sc1ccc(C)cc1)c1c(nc(N)c(C#N)c1N)O2 (configuration not stated)")
-1.22
